This collection of values is drawn from PubChem BioAssay (NCI).

Test system: UO-31 renal
Test: NCI tumour cell line growth inhibition, 48 h
For each entry below, report its TGI value.
Express the result in µM but write the number alone.

Look at this compound and give its reported TGI. COC(=O)C1=CSC2(S1)C(C(=O)OC)=CSc1c2ssc1=O (stereo not given)
3.25

Look at this compound and give its reported TGI. CS(=O)(=O)CCNCc1ccc(-c2ccc3ncnc(Nc4ccc(OCc5ccccc5)c(Br)c4)c3c2)o1
11.5

###

System: UO-31 renal
Experiment: NCI tumour cell line growth inhibition, 48 h
For each entry below, report its TGI value.

Look at this compound and give its reported TGI. Nc1nc2c(c(=O)[nH]1)C(c1ccccc1)CC(=O)N2 (stereo unspecified)
> 100 µM

Look at this compound and give its reported TGI. COc1ccc(C(=O)C(C(=O)CC(=O)Nc2cccc(C(F)(F)F)c2)c2ccc(OC)cc2)cc1 (stereo unspecified)
> 100 µM

Look at this compound and give its reported TGI. CC(NO)/C(=N/O)c1ccco1 (stereo unspecified)
> 10 µM

Look at this compound and give its reported TGI. NC1CCC(Nc2nc(NCc3ccc(-c4ccccc4O)nc3)c3ncn(C4CCCC4)c3n2)CC1 (stereo unspecified)
0.545 µM

Look at this compound and give its reported TGI. O=C1c2ccccc2C(=O)N1CC1S(=O)(=O)OCCOS1(=O)=O
> 100 µM

Look at this compound and give its reported TGI. C[C@]12CC[C@@H]3c4cc(-c5ccc(F)cc5)c(O)cc4CC[C@H]3[C@@H]1CC[C@@H]2O
21.6 µM

Look at this compound and give its reported TGI. CC12CCC(C(Nc3cc(C(F)(F)F)cc(C(F)(F)F)c3)C1=O)C2(C)C (stereo unspecified)
> 100 µM

Look at this compound and give its reported TGI. Cc1cc(=O)oc2c(C)c(O)ccc12
> 100 µM

Look at this compound and give its reported TGI. CN(C)CCCNc1ccc2c(=O)n(CCN(C)C)c(=O)n3c4ccccc4c(=O)c1c23
2.08 µM

Look at this compound and give its reported TGI. N#Cc1c(=O)c2ccccc2n2c1[nH]c1ccccc12
> 100 µM

Look at this compound and give its reported TGI. Nc1nc(Cl)c(/C=N\O)c(NCC2(CO)CCC2)n1
> 100 µM

Look at this compound and give its reported TGI. Cc1nc(C(N)=S)sc1C(=O)CC(=O)C(=O)Nc1ccccc1[N+](=O)[O-]
> 100 µM

Look at this compound and give its reported TGI. O=C(O)c1ccc(Oc2nccc(-c3c(-c4ccc(F)cc4)ncn3C3CCNCC3)n2)cc1
> 25 µM

Look at this compound and give its reported TGI. C=CCN1C(=O)/C(=C\c2cc(C(C)(C)C)c(O)c(C(C)(C)C)c2)NC1=S
> 100 µM

Look at this compound and give its reported TGI. O=C(O)Cc1cc(=O)[nH]c2c1/C(=N/O)CCC2
> 100 µM

Look at this compound and give its reported TGI. Cc1ccc(/C(O)=C/c2nc3c(nc2NC24CC5CC(CC(C5)C2)C4)c(=O)oc2ccccc23)cc1
> 100 µM

Look at this compound and give its reported TGI. O=P1(Oc2ccc(Cl)cc2Cl)Oc2ccc3ccccc3c2-c2c(ccc3ccccc23)O1
41.3 µM

Look at this compound and give its reported TGI. CCCCCCCCCCCCCCCCCCN(C)C(COC)COP(=O)([O-])OCC[N+](C)(C)C (stereo unspecified)
31.4 µM

Look at this compound and give its reported TGI. CCN(CC)CCC(=O)c1ccc(C)cc1
42 µM

Look at this compound and give its reported TGI. Cc1n[nH]c(=O)n1/N=C/c1ccc(F)cc1
> 100 µM

Look at this compound and give its reported TGI. CC(C)(Oc1ccccc1)C(=O)Sc1c(-c2ccccc2)c(=O)n(-c2ccccc2)c(=S)n1-c1ccccc1
82.8 µM
